Source of measurements: ChEMBL document CHEMBL1201862

measurementTarget: Induced myeloid leukemia cell differentiation protein Mcl-1 (Homo sapiens, UniProt Q07820)
Sequence (Q07820 whole entry): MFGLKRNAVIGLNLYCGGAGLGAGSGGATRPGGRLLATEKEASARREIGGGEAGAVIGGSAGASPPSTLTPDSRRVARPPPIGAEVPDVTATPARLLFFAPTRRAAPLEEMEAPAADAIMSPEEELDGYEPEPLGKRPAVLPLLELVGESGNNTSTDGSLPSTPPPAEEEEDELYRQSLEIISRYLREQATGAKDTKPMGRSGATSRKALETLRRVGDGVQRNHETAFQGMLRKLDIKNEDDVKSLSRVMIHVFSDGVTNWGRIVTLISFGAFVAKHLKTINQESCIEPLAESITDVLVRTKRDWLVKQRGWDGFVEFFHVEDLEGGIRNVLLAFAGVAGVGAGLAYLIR
Assay type: functional
Activity calls are given as the source filed them.
parameter: IC50

Some solved entries appear below for comparison.
INSERT INTO results (compound, reportedresult) VALUES
  ('COc1ccc(O)c(C(=O)c2cc(SCC(=O)O)c3nc4sc5c(c4c(=O)n3c2)CCCC5)c1', '1490 nM (active)'),
  ('FC(F)(F)C1=CC(c2ccccc2)=NCCN1', '9330 nM (not active)'),
  ('CN(C)C=O.O=C(Nc1cccc(S(=O)(=O)NC2=NCCCCC2)c1)c1cc(-c2ccco2)nc2ccccc12', '1690 nM (active)'),
  ('CCOc1ccc(C2C3=C(O)c4ccccc4C3=Nc3nc(N)nc(O)c32)cc1 (stereo not given)', '> 54000 nM (active)');

Then there is this compound:
Entry under test: CC(=O)c1sc2nc(CSc3nnnn3-c3ccccc3)[nH]c(=O)c2c1C . Its IC50 was 1710 nM (active)

====

measurementTarget: Corticotropin-releasing factor receptor 2/Corticotropin-releasing factor-binding protein (Homo sapiens, UniProt P24387+Q13324)
Sequence (Q13324 whole entry): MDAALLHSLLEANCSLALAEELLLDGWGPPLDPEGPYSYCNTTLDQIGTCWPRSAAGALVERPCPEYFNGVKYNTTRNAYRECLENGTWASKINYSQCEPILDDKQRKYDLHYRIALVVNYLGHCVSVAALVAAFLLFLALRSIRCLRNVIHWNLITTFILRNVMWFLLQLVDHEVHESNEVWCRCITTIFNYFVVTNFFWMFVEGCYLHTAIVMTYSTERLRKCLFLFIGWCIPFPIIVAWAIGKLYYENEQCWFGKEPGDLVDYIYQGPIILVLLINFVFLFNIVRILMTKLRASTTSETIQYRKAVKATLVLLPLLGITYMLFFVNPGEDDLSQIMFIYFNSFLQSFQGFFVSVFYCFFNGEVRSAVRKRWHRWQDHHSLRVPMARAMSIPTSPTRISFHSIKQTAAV
Sequence (P24387 whole entry): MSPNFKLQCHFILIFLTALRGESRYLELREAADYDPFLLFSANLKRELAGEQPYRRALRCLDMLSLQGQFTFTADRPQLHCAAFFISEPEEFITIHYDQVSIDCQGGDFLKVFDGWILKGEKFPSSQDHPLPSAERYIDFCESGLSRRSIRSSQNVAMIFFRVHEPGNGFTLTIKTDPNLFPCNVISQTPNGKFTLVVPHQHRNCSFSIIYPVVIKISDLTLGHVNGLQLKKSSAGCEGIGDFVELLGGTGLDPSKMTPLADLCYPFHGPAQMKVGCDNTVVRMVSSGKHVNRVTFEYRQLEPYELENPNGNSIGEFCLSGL
testDescription: activators of CRF receptor 2 with binding protein – uHTS hits, confirmation (AID 602473)
Format: functional
conditionSummary: read-out: EC50_Mean
Active and inactive are the calls of the source.
I would appreciate it if you answered using one of these outcomes: active, inactive

INSERT INTO measurements (molecule, classassignment) VALUES
  ('Cc1cc(O)c(C2=Nc3ccccc3SC(c3ccc(Cl)cc3)C2)c(=O)o1 (configuration not stated)', 'inactive'),
  ('CCCCCn1c(=O)c(C(=O)Nc2c(C)n(C)n(-c3ccccc3)c2=O)c(O)c2ccccc21', 'inactive'),
  ('Cc1cccc(N(C(=O)c2nsc(Cl)c2Cl)C(C(=O)NC2CCCC2)c2ccc(O)cc2)c1C (configuration not stated)', 'inactive'),
  ('Cc1cccc(C(=O)N2c3ccccc3C(=O)OC2c2ccc3c(c2)OCO3)c1 (configuration not stated)', 'inactive');

### Prompt State the result this test recorded for COc1ccc(NC(=O)C(c2cc3c(cc2[N+](=O)[O-])OCO3)N(C)c2ccccc2)cc1 (configuration not stated) .
### Response inactive

### Prompt Test call for this molecule, please: CN(C)c1ccc(/C=C2\C(=N)N3N=C(CC(=O)N4CCCCC4)SC3=NC2=O)cc1
### Response active

### Prompt Which result was noted for this molecule in the test: O=C1c2ccccc2S(=O)(=O)c2cc(C(=O)N(c3ccccn3)c3ccccn3)ccc21
### Response active

### Prompt Recorded call for C=CCC[C@@H](Cc1ccc(F)cc1)C(=O)OC[C@H](Cc1c[nH]c2ccccc12)NC(=O)[C@@H](CC=C)CC(=O)NCCO ?
### Response active

### Prompt In this assay, the call recorded for Cc1cc(N2CCOCC2)nc(NCc2ccccc2)n1 was what?
### Response active

====

testDescription: off-target signal loss in HeLa-CEM21 co-culture – HeLa F-luc CTL cells, cherry-picked, counter-screen for HIV-1 Env fusion inhibitor project, dose response (AID 652040);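 further: potency for signal decrease marking cytotoxic or nonspecific inhibition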
Assay type: functional, cell-based
Active and inactive are the calls of the source.
I'd appreciate it if you could supply AC50 values for the items below.

Below, 3 compounds whose answers are already recorded.
INSERT INTO assay_data (compound, parameter, reportedresult) VALUES
  ('CCOC1=C2[C@H](c3ccccc3)N(S(=O)(=O)c3ccc(C)cc3)[C@H](C(C)C)[C@H]2C(C#N)(C#N)C(C#N)(C#N)C1', 'AC50', '1.7 µM (active)'),
  ('Clc1ccccc1C1=Nn2c(nnc2-c2ccncc2)SC1', 'AC50', '1.96 µM (active)'),
  ('NC(Cc1ccc(F)cc1)c1csc(Nc2ccc(C(F)(F)F)cn2)n1 (centres undefined)', 'AC50', '9.07 µM (active)');

Attention now shifts to the item below.
Entry COc1ccc(C(C(=O)NC2CCCC2)N(C(=O)c2ccoc2C)c2ccc(C)cc2)cc1 (centres undefined) — recorded AC50 = 8.48 µM (active)

====

measurementTarget: Protein RecA (Mycobacterium tuberculosis, UniProt P9WHJ3)
testDescription: Fluorescence Cell-Free Homogeneous Dose Retest to Identify Inhibitors of RecA-Intein Splicing Activity. [Related pubchem assays (depositor defined):AID2097, AID2223, AID489010, AID492950]
Format: functional
Activity calls are given as the source filed them.
Lab note: assign the record to one of active, inactive

As a guide, the following entries are already answered.
INSERT INTO assay_data (compound, classassignment) VALUES
  ('CC1CCCN(C(=O)COc2ccc(NC(=O)c3cccs3)cc2)C1 (stereo not given)', 'inactive'),
  ('COc1ccc(COC(=O)N/N=C(\C)CC(=O)Nc2ccc(Cl)cn2)cc1', 'active'),
  ('CCc1n[nH]c2c1C(c1ccc(C)o1)C(C#N)=C(N)O2 (stereo not given)', 'active'),
  ('O=C(O)c1ccccc1Nc1cc(Cl)c2nonc2c1[N+](=O)[O-]', 'active'),
  ('Cc1ccc2c(c1)Oc1ccc(NC(=O)CCl)cc1C(=O)N2', 'active');

### Prompt Kindly provide the recorded test outcome for the following compound: O=C(O)/C=C/C(=O)Nc1ccc(SC(F)(F)C(F)(F)C(F)(F)F)cc1
### Response active

### Prompt What call does the record list for CC1=NN(c2cccc(Cl)c2)C(=O)C12CC(C)=C(C)CS2 (stereo not given) ?
### Response active

### Prompt Recorded call for Oc1ccc(O)c2c1C1c3ccccc3C2c2ccccc21 ?
### Response active

### Prompt Please state the recorded outcome for this compound: O=C(CCN1C(=O)/C(=C\c2ccccc2F)SC1=S)Nc1ccc(C(=O)O)c(O)c1
### Response active

### Prompt So what was the verdict on COc1ccc(C(N)c2nccc3cc(OC)c(OC)cc23)cc1OC (stereo not given) in this test?
### Response inactive

### Prompt Could you check what this test reported for CC(=O)c1ccc(Sc2nnnn2-c2ccccc2)c([N+](=O)[O-])c1 ?
### Response active

### Prompt Hi, sorry to bother you, what did the test record for O=C1C=C(Nc2cccc3cccnc23)c2ccccc2C1=O ?
### Response active

====

measurementTarget: Carboxy-terminal domain RNA polymerase II polypeptide A small phosphatase 1 (Homo sapiens)
Sequence (Q9GZU7 whole entry, the tested form may be a part): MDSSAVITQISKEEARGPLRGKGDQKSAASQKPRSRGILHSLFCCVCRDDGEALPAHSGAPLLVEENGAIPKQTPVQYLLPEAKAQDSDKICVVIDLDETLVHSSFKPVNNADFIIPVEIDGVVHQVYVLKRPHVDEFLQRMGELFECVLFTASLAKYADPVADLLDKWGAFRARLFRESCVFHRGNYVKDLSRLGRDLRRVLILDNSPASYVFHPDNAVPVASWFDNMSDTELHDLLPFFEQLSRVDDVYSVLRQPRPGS
testDescription: CTDSP1 inhibitors, concentration-response, biochemical, absorbance readout, ultra-high-throughput screen actives (AID 540297)
Type: functional
Active and inactive are the calls of the source.
parameter: IC50

Worked cases, IC50 given:
INSERT INTO assay_data (compound, reportedresult) VALUES
  ('Cc1cc2c(SCC(=O)Nc3cccc(O)c3)ncnc2s1', '6.88 µM (active)'),
  ('COc1cc(/C=C2/C(=O)NN(c3ccc(C)c(Cl)c3)C2=O)cc([N+](=O)[O-])c1O', '6.75 µM (active)'),
  ('CCCCC(=O)Nc1ccc(C(=O)NNC(=O)c2ccc(C)c(Br)c2)cc1', '10.2 µM (active)'),
  ('O=C(O)CCn1cc(C=C2C(=O)NC(=S)NC2=O)c(-c2cccc(Cl)c2)n1', '10.1 µM (active)'),
  ('N=C1S/C(=C\c2ccc(O)cc2)C(=O)N1c1ccc(F)cc1', '5.84 µM (active)');

For the 8 compounds below, give their IC50 values.
1. O=C(N/N=C/c1cccc([N+](=O)[O-])c1)c1cc2c(ccc3ccccc32)o1
2. Cc1ccccc1NC(=O)C(=O)NNC(=O)COc1ccc2ccccc2c1
3. CCOc1ccc(/C=N/NC(=O)c2cc3c(OC)cccc3[nH]2)cc1
4. Clc1nc(Cl)nc(-c2cn(-c3ccccc3)c3ccccc23)n1
5. CC(=O)c1ccc(NC(=O)CN2C(=O)COc3ccc(S(=O)(=O)N4CCCC4)cc32)cc1
6. O=C(COc1ccc(/C=N/NC(=O)c2ccccc2O)cc1)Nc1ccccc1
7. CC1(C)C(=O)Nc2ccccc2N1C(=O)COc1ccccc1C#N
8. CC1CCCC(C)N1C(=O)COC(=O)/C=C/c1ccc(Br)o1 (stereo not drawn)

### Response
1. 3.91 µM (active)
2. 13.1 µM (active)
3. 3.08 µM (active)
4. 7.98 µM (active)
5. 6.65 µM (active)
6. 5.32 µM (active)
7. 13.2 µM (active)
8. 19.1 µM (active)

====

measurementTarget: Eukaryotic translation initiation factor 4E (Mus musculus)
Sequence (P63073 whole entry): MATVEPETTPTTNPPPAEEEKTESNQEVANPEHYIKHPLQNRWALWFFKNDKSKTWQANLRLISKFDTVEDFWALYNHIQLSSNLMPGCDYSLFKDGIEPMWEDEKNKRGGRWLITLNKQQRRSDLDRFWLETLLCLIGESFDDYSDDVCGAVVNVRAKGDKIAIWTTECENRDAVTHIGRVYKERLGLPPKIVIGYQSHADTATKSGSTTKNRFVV
testDescription: blockers of eIF4G binding by eIF4E – biochemical, TR-FRET, dose response (AID 855);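 further: potency for disrupting eIF4E binding to eIF4GI seen as loss of FRET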
Type: functional
Calls of active or inactive are those of the source.
Response enum: true (1) for active, false (0) for inactive

INSERT INTO results (molecule, classassignment) VALUES
  ('Cc1ccc(-n2sc3ccccc3c2=O)cc1S(=O)(=O)N1CCCCC1', 'true (1)'),
  ('CC(=O)c1sc2nc(CSc3nnnn3-c3ccccc3)[nH]c(=O)c2c1C', 'false (0)'),
  ('COc1cc(CNc2ccc(N3CCCC3)cc2)ccc1OCc1ccccc1F', 'false (0)');

### Prompt Assay result, entry COc1ccc(CN2C(=O)/C(=C/c3ccc(-c4ccc(Cl)c(C(=O)O)c4)o3)SC2=S)cc1 — outcome?
### Response true (1)
